Listed here are compounds together with their documented log10 of TGI.
Tested on: MDA-MB-435
Test: NCI tumour cell line growth inhibition, 48 h
In our notation, the value equals log10 of TGI in µM.

# count of solved cases: 2
Inquiry: For O=c1[nH]c2nc3ccccc3c(=O)n2/c1=C/c1ccc(Cl)cc1 , what is its reported log10 of TGI?
Reply text: 1.77

Inquiry: Form field: reported log10 of TGI of COc1ccc2c(c1)C(=O)/C(=C/c1cccc(OCC(=O)c3ccccc3)c1)CC2
Reply text: 1.02

Continuing:
Inquiry: # log10 of TGI lookup, item O=S1(=O)c2ccccc2Oc2ccc(C(/C=N/O)=N/O)cc21
Reply text: 1.72

Inquiry: What measured log10 of TGI goes with CCN1C(=O)N(CC)C2C1NN=c1s/c(=C\c3ccc(Cl)cc3Cl)c(=O)n12 (configuration not stated) ?
Reply text: -1.24

Inquiry: I'd like to know its log10 of TGI. The compound in question is CN1CCC(CNc2cc(C3(C(=O)Nc4cc(C(=O)Nc5ccc(Cl)c(C(F)(F)F)c5)ccc4F)CC3)ncn2)CC1
Reply text: 0.61

Inquiry: Reported log10 of TGI, compound O=[N+]([O-])c1ccccc1N=Nc1c(O)[nH]c2cccc(C(F)(F)F)c12 : ____
Reply text: 1.61

Inquiry: Which log10 of TGI reading was recorded for the compound COc1cc2c(c3c1c(=O)c1ccccc1n3C)C=CC1(CCCC1)O2 ?
Reply text: 1.54

Inquiry: # lookup: log10 of TGI of Cc1ccc2cnc(N)c(C#Cc3cc(C(=O)Nc4ccc(CN5CCN(C)CC5)c(C(F)(F)F)c4)cnc3C)c2c1
Reply text: 0.00

Inquiry: Which value of log10 of TGI has been reported for COC(=O)C1(NC(=O)C(CC(=O)OCc2ccccc2)NC(=O)OCc2ccccc2)CCCCCC1 (configuration not stated) in the records?
Reply text: 1.87

Inquiry: Reported log10 of TGI, compound C/C(=N/O)c1cccc(Nc2cc(-n3nnc4ccccc43)nc3ccccc23)c1 : ____
Reply text: 1.57

Inquiry: // query log10 of TGI value for entry CC(C)/C(Cl)=N/OC(=O)Nc1ccc(Br)cc1
Reply text: 1.49

Inquiry: Quick one: log10 of TGI for O=C1/C(=C/c2ccc([N+](=O)[O-])cc2)CN(C(=O)CCN2CCC(=NO)CC2)C/C1=C\c1ccc([N+](=O)[O-])cc1 ?
Reply text: 0.54

Inquiry: Give its log10 of TGI value. Item: CC12CCC(CC(=O)/C1=C(/Br)I)C2(C)C (configuration not stated)
Reply text: 1.46

Inquiry: # get_value(readout='log10 of TGI', item= Nc1n(CC(=O)c2ccccc2)nc2sc(-c3ccccc3)n[n+]12 )
Reply text: 0.95

Inquiry: Field request: log10 of TGI | item: COc1cc(/C=C/C(=O)/C=C/c2cc(OC)c3c(c2)OCO3)cc2c1OCO2
Reply text: 0.63

Inquiry: Which log10 of TGI is reported for this compound? CCN(CCCOc1ccccc1)CCN(CC)CCCOc1ccccc1
Reply text: 1.53

Inquiry: # get_value(readout='log10 of TGI', item= CC1=C2C(=C[C@@](C)(CO)[C@@H]2OC(=O)N(C)CCN(C)C(=O)OC(C)(C)C)C(=O)[C@](C)(O)C12CC2 )
Reply text: 1.36

Inquiry: Recorded log10 of TGI for N=C1C(O)C2(I)c3ccccc3N3C(=N)C(O)C4c5ccccc5N1C4C32 (configuration not stated) , please?
Reply text: 1.58

Just for reference, PubChem BioAssay (NCI) is where these values come from.
